This collection of values is drawn from patent US20210030857A1.

- assay-target: T1, cynomolgus monkey beta klotho protein (soluble, used in Biacore) (cynomolgus monkey (Macaca fascicularis), UniProt Q86Z14 53-996 (human entry), limits assumed)
- T1 construct: Protein in solution; also called Cyno KLB; cyKLB
- T1 chain: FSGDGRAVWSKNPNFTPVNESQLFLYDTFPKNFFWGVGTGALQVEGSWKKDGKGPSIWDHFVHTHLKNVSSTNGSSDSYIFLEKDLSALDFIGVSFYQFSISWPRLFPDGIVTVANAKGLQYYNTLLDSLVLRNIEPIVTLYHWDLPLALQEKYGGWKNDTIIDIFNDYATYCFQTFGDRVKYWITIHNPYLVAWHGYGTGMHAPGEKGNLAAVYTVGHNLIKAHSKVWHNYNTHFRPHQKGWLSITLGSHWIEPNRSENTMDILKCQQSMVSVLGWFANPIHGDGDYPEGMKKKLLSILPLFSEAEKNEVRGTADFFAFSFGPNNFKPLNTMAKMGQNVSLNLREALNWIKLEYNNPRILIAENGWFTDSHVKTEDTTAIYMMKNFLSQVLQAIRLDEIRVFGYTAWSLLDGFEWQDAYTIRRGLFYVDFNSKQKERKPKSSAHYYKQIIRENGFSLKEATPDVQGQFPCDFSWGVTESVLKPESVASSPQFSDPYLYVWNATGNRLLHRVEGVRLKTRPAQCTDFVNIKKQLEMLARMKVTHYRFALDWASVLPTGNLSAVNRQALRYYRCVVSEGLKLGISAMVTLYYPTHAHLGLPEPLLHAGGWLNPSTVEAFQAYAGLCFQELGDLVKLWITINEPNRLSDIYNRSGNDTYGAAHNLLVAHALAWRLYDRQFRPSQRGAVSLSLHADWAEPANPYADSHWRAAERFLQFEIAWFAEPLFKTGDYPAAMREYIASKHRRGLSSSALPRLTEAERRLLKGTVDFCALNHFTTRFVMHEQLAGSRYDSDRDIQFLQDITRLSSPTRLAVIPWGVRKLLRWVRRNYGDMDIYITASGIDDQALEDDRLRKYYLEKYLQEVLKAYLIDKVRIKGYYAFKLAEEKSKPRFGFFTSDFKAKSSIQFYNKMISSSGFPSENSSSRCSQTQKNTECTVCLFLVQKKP
- assay-notes: Biacore SPR, antibody captured on anti-mouse Fc, KLB as analyte (1.56-25 nM), 25 C
- Procedure: Binding affinity measurements were also made in additional Biacore based assays. For example, equilibrium dissociation constant (KD) measurements were carried out with purified antibodies to evaluate their binding to human beta klotho and cyno beta klotho. […] This was followed by injection of different concentrations of human or cyno beta klotho (1.56 nM to 25 nM, two-fold dilutions in PBS-P buffer) at a flow rate of 70 μL/min and the binding kinetics were evaluated at 25° C.
observed-property: pKd
Value format note: pKd is -log10 of concentration (mol/L); just state the number.

Examples with answers:
{"columns": ["binder", "pKd"],
 "data": [
  ["antibody 3L3 (antibody, V domains shown, Murine monoclonal antibody) VH: QVQPQESGPELVKPGTLVKISCKASGYTFTSYDINWVKQRPGQGLEWIGWIYPGDGSPKYDEKFKGKATLTADKSSSTAYMQLSSLTSENSAVYFCARSDYYGSRSFVYWGQGTLVTVSA VL: DIVLTQSPASLAVSLGQRATISCRASKSVSTSGYSYVHWYQQKPGQPPKLLIYLASNLESGVPARFSGRGSGTDFTLNIHPVEEEDAATYYCQHSGELPYTFGGGTKLEIK", 8.66],
  ["antibody 2L12 (antibody, V domains shown, Murine monoclonal antibody) VH: QVQLQQSGPELVKPGALVKISCKASGYTFTRYDINWVKKRPGQGLEWIGWIYPGDDSTKYNEKFKGKATLTADKSSSTAYMQLSSLTSENSAVYFCARSDYYGSRSFVYWGQGTLVTVSA VL: DIVLTQSPASLPVSLGQRATISCRASKSVSTSGYSYLHWYQQKPGQPPKLLIYLASNLESGVPARFSGSGSGTDFTLNIHPVEEEDAATYYCQHSGELPYTFGGGTKLEIK", 8.85]
]}

Query binder follows.
Exam item: Recorded pKd for antibody 5F7 (antibody, V domains shown, Murine monoclonal antibody) VH: QVQPQESGPELVKPGALVKISCKASGYTFTRYDINWVKQRPGQGLEWIGWIYPGDISTKYNEKFKGKATLTADKSSSTAYMQLNSLTSENSAVYFCARSDYYGSRSFVYWGQGTLVTVSA VL: DIVLTQSPASLAVSLGQRATISCRASKSVSTSGYSYMHWYQQKPGQPPKLLIYLASNLESGVPARFSGSGSGTDFTLNIHPVEEEDAATYYCQHSRELPYTFGGGTKVEIK , please?
Marked response: 8.60
